Source listed as PubChem BioAssay (NCI).

test system: RPMI-8226 leukemia; experiment: NCI-60 one-dose screen, 48 h (100 = growth as untreated, 0 = no growth, -100 = all killed); settings: 10 µM unless noted
About 83,000 compounds went through this panel and 20% of them were active in at least one assay; those are over-represented in the sample as a whole.
readout-type: growth (%)
Supply the numeric figure in %, leaving out any unit text.

molecule	growth, %
C=CC(C)(C)n1cc(C2=C(O)C(=O)C(c3cn(C(C)(C)C=C)c4ccccc34)=C(O)C2=O)c2ccccc21	104

Please list growth recorded for the molecule "S=c1nc2[nH]c3ccccc3c2n[nH]1"
74.2

Please list growth recorded for the molecule CC1CCC(C(C)(C)[N+](C)(C)C)CC1 (centres undefined)
102

Please list growth recorded for the molecule "CCOC(=O)Nc1nccs1"
100

Please list growth recorded for the molecule "CC(=O)/C(C)=N\OC(=O)Nc1ccccc1"
102

Please list growth recorded for the molecule "CCN(CC)CCN1CNC(=S)NC1"
99.2

Please list growth recorded for the molecule CN=S(=O)(OCCCCCOS(=O)(=NC)c1ccc(C)cc1)c1ccc(C)cc1 (centres undefined)
75.2

Please list growth recorded for the molecule "OCCNc1ccccc1"
105
